target: T1, human OT7T175 (metastin receptor) (human, UniProt Q969F8 1-398); experiment: competition with Cy-5 metastin (40-54) on hOT7T175-CHO cells, FMAT
T1 construct: expressed on CHO cells; also called hOT7T175; hOT7T175-expressed CHO cells
T1 sequence (Q969F8 whole entry L364H): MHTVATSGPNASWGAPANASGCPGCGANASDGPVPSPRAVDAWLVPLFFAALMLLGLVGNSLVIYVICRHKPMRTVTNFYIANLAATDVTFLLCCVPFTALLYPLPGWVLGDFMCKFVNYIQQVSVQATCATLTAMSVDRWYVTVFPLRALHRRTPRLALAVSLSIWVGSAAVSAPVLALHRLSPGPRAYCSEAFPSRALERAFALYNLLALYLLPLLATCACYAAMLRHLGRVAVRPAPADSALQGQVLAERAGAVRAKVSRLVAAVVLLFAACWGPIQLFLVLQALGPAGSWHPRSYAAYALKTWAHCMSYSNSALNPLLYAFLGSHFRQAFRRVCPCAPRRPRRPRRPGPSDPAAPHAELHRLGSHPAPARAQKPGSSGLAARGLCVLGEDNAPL
Non-standard residues stand in square brackets, D forms with d. No end group written: not given here. Phe(3-Cl) = N[C@@H](Cc1cccc(Cl)c1)C(=O)O; Phe(4-F) = N[C@@H](Cc1ccc(F)cc1)C(=O)O; Arg(Me) = CNC(=N)NCCC[C@H](N)C(=O)O; 3Pal = N[C@@H](Cc1cccnc1)C(=O)O; Abu = CC[C@H](N)C(=O)O; azaGly = NNC(=O)O
Rule for this label: Condition met means IC50 is less than 100 nM; Condition not met means IC50 is at least 100 nM.

INSERT INTO results (binder, discrete_label) VALUES
  ('[dY]NANSFGL[Arg(Me)]F-NH2 (N-terminus assumed; SMILES CNC(=N)NCCC[C@H](NC(=O)[C@H](CC(C)C)NC(=O)CNC(=O)[C@H](Cc1ccccc1)NC(=O)[C@H](CO)NC(=O)[C@H](CC(N)=O)NC(=O)[C@H](C)NC(=O)[C@H](CC(N)=O)NC(=O)[C@H](N)Cc1ccc(O)cc1)C(=O)N[C@@H](Cc1ccccc1)C(N)=O, also called Compound No. 169) [[D-Tyr1,Ala3,Arg(Me)9]MS10]', 'Condition not met'),
  ('[dY][dN]WNTF[azaGly]L[Arg(Me)]F-NH2 (N-terminus assumed; SMILES CNC(=N)NCCC[C@H](NC(=O)[C@H](CC(C)C)NC(=O)NNC(=O)[C@H](Cc1ccccc1)NC(=O)[C@@H](NC(=O)[C@H](CC(N)=O)NC(=O)[C@H](Cc1c[nH]c2ccccc12)NC(=O)[C@@H](CC(N)=O)NC(=O)[C@H](N)Cc1ccc(O)cc1)[C@@H](C)O)C(=O)N[C@@H](Cc1ccccc1)C(N)=O, also called Compound No. 298) [[D-Tyr1,D-Asn2,Thr5,AzaGly7,Arg(Me)9]MS10]', 'Condition met'),
  ('YNWNSFG[Abu]RF-NH2 (N-terminus assumed; SMILES CC[C@H](NC(=O)CNC(=O)[C@H](Cc1ccccc1)NC(=O)[C@H](CO)NC(=O)[C@H](CC(N)=O)NC(=O)[C@H](Cc1c[nH]c2ccccc12)NC(=O)[C@H](CC(N)=O)NC(=O)[C@@H](N)Cc1ccc(O)cc1)C(=O)N[C@@H](CCCNC(=N)N)C(=O)N[C@@H](Cc1ccccc1)C(N)=O, also called Compound No. 187) [[Abu8]MS10]', 'Condition not met'),
  ('[dY][dN]TNSF[azaGly]L[Arg(Me)][Phe(4-F)]-NH2 (N-terminus assumed; SMILES CNC(=N)NCCC[C@H](NC(=O)[C@H](CC(C)C)NC(=O)NNC(=O)[C@H](Cc1ccccc1)NC(=O)[C@H](CO)NC(=O)[C@H](CC(N)=O)NC(=O)[C@@H](NC(=O)[C@@H](CC(N)=O)NC(=O)[C@H](N)Cc1ccc(O)cc1)[C@@H](C)O)C(=O)N[C@@H](Cc1ccc(F)cc1)C(N)=O, also called Compound No. 316) [[D-Tyr1,D-Asn2,Thr3,AzaGly7,Arg(Me)9,Phe(4F)10]MS10]', 'Condition met'),
  ('[dY]FNSF[azaGly]L[Arg(Me)]F-NH2 (N-terminus assumed; SMILES CNC(=N)NCCC[C@H](NC(=O)[C@H](CC(C)C)NC(=O)NNC(=O)[C@H](Cc1ccccc1)NC(=O)[C@H](CO)NC(=O)[C@H](CC(N)=O)NC(=O)[C@H](Cc1ccccc1)NC(=O)[C@H](N)Cc1ccc(O)cc1)C(=O)N[C@@H](Cc1ccccc1)C(N)=O, also called Compound No. 254) [des(1)-[D-Tyr2,Phe3,AzaGly7,Arg(Me)9]MS10]', 'Condition met'),
  ('[dY]INSF[azaGly]L[Arg(Me)]F-NH2 (also called Compound No. 240) [des(1)-[D-Tyr2,Ile3,AzaGly7,Arg(Me)9]MS10]', 'Condition met'),
  ('[dY]N[Phe(3-Cl)]NSF[azaGly]L[Arg(Me)]F-NH2 (also called Compound No. 248) [[D-Tyr1,Phe(3Cl)3,AzaGly7,Arg(Me)9]MS10]', 'Condition met'),
  ('[dN]WNSFGL[Arg(Me)]F-NH2 (N-terminus assumed; SMILES CNC(=N)NCCC[C@H](NC(=O)[C@H](CC(C)C)NC(=O)CNC(=O)[C@H](Cc1ccccc1)NC(=O)[C@H](CO)NC(=O)[C@H](CC(N)=O)NC(=O)[C@H](Cc1c[nH]c2ccccc12)NC(=O)[C@H](N)CC(N)=O)C(=O)N[C@@H](Cc1ccccc1)C(N)=O, also called Compound No. 216) [des(1)-[D-Asn2,Arg(Me)9]MS10]', 'Condition not met');

QUERY: Quick check: does YNWNSXGLRF (D-Tyr1; Pya(2)6; Arg(Me)9; C-terminal amide, also called Compound No. 281) [[D-Tyr1,Pya(2)6,Arg(Me)9]MS10] have IC50 under 100 nM?
RESULT: Condition not met

QUERY: Below 100 nM on IC50? Entry [dY]N[3Pal]NSF[azaGly]L[Arg(Me)]F-NH2 (also called Compound No. 251) [[D-Tyr1,Pya(3)3,AzaGly7,Arg(Me)9]MS10]
RESULT: Condition met

QUERY: Lab log: compare recorded IC50 with 100 nM; is it strictly lower for Ac-TNSF[azaGly]L[Arg(Me)]F-NH2 (SMILES CNC(=N)NCCC[C@H](NC(=O)[C@H](CC(C)C)NC(=O)NNC(=O)[C@H](Cc1ccccc1)NC(=O)[C@H](CO)NC(=O)[C@H](CC(N)=O)NC(=O)[C@@H](NC(C)=O)[C@@H](C)O)C(=O)N[C@@H](Cc1ccccc1)C(N)=O, also called Compound No. 276) [des(1-2)-Acetyl-[Thr3,AzaGly7,Arg(Me)9]MS10] ?
RESULT: Condition not met

Each recorded value in this set is attributed to patent US20090298765A1.
